Attribution: ChEMBL document CHEMBL2163188

Procedure Text: AUC (0 to infinity) in mouse at 10 mg/kg, iv
Format: ADME, organism-based
Design: dose 10 mg/kg, route intravenous, time infinity
Condition Summary: plasma
Observed Property: AUC(0-inf) (ng·h/mL)
Quick reminder: number only, in ng·h/mL, skip the unit.

Answer with the recorded AUC(0-inf) for the compound listed here: `CS(=O)(=O)c1ccc([C@@H](C[C@H]2CCC(=O)C2)C(=O)Nc2cnccn2)cc1Cl`
1500

* * *

Procedure Text: Plasma protein binding in monkey
Format: ADME, cell-free, Macaca mulatta
Condition Summary: rhesus monkey, read-out: PPB
Observed Property: fraction unbound
Give a plain numeric answer without units written out.

Read the entry `CS(=O)(=O)c1ccc([C@@H](C[C@H]2CCC(=O)C2)C(=O)Nc2cnccn2)cc1Cl` and write its reported fraction unbound.
0.5

* * *

Procedure Text: Plasma protein binding in dog
Assay type: ADME, cell-free, Canis lupus familiaris
Condition Summary: read-out: PPB
Observed Property: fraction unbound
Reply with just the number.

Please look at this compound and report its fraction unbound: `CS(=O)(=O)c1ccc([C@@H](C[C@H]2CCC(=O)C2)C(=O)Nc2cnccn2)cc1Cl`
0.5

* * *

Procedure Text: AUC (0 to infinity) in mouse at 30 mg/kg, po
Type: ADME, organism-based
Set-up: time infinity, dose 30 mg/kg, route oral
Condition Summary: plasma
Observed Property: AUC(0-inf) (ng·h/mL)
Record the value in ng·h/mL, omitting the unit from your answer.

Please give measured AUC(0-inf) of the following entry: CS(=O)(=O)c1ccc([C@@H](C[C@H]2CCC(=O)C2)C(=O)Nc2cnccn2)cc1Cl [PIRAGLIATIN]
1760

* * *

Procedure Text: Drug metabolism in human liver microsomes at 20 uM after 30 mins by LCMS/MS analysis
Observed Property: metabolised at 0.5 h, 20 µM (%)
Give the number; % is assumed, so skip it.

Read the entry CS(=O)(=O)c1ccc([C@@H](C[C@H]2CCC(=O)C2)C(=O)Nc2cnccn2)cc1Cl [PIRAGLIATIN] and write its reported metabolised at 0.5 h, 20 µM.
10.6

* * *

Procedure Text: Volume of distribution at steady state in rat at 10 mg/kg, iv
Assay type: ADME, organism-based
Design: dose 10 mg/kg, route intravenous
Condition Summary: in vivo, read-out: Vdss
Observed Property: Vd
Your reply should be a number followed by the unit it is expressed in.

Quickly give me recorded Vd for CS(=O)(=O)c1ccc([C@@H](C[C@H]2CCC(=O)C2)C(=O)Nc2cnccn2)cc1Cl [PIRAGLIATIN]
4.97 L/kg

* * *

Procedure Text: Oral bioavailability in mouse at 30 mg/kg
Type: ADME, organism-based
Condition Summary: in vivo
Observed Property: bioavailability
Show the value, then the unit it is measured in.

Indicate the recorded bioavailability value for this compound: `CS(=O)(=O)c1ccc([C@@H](C[C@H]2CCC(=O)C2)C(=O)Nc2cnccn2)cc1Cl`
39%

* * *

Procedure Text: Cmax in monkey at 5 mg/kg, iv
Type: ADME, organism-based, Macaca mulatta
Set-up: dose 5 mg/kg, route intravenous
Condition Summary: rhesus monkey, in vivo
Observed Property: Cmax (ng/mL)
The figure you give is taken to be in ng/mL; do not add the unit.

Report Cmax for `CS(=O)(=O)c1ccc([C@@H](C[C@H]2CCC(=O)C2)C(=O)Nc2cnccn2)cc1Cl`
3330

* * *

Procedure Text: Plasma clearance in dog at 10 mg/kg, iv
Format: ADME, organism-based, Canis lupus familiaris
Parameters: dose 10 mg/kg, route intravenous
Observed Property: clearance
Write down the value, and be sure its unit follows.

Using known records, supply clearance for `CS(=O)(=O)c1ccc([C@@H](C[C@H]2CCC(=O)C2)C(=O)Nc2cnccn2)cc1Cl`
19.7 mL/min/kg
